Readings of ΔTm for the listed compounds
Target: Dual specificity mitogen-activated protein kinase kinase 6 (Homo sapiens)
Sequence (whole entry): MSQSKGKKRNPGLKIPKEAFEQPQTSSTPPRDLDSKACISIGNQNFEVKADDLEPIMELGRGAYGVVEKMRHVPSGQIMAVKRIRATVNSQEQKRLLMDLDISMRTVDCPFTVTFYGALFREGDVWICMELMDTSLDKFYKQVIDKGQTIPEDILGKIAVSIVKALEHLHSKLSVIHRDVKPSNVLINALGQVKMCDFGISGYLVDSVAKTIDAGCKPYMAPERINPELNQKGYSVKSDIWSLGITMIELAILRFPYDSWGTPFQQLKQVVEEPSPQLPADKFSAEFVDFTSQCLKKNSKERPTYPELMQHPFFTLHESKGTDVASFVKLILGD
property: ΔTm (°C)

>>> measured("COc1ccc(S(=O)(=O)N(CCO)c2ccccc2CN(C)C/C=C/c2ccc(Cl)cc2)cc1")
0.4
>>> measured("N#C/C(=C1/Nc2ccccc2S1)c1ccnc(NCCc2cccnc2)n1")
3.5
>>> measured("CC(C)c1cc(/C=C(\\C#N)C(=O)NCCCc2ccccc2)cc(C(C)C)c1O")
0.3
>>> measured("Nc1n[nH]c2nnc(-c3c(-c4ccccc4)nn4ccccc34)cc12")
0.2
>>> measured("CC(C)n1cnc2c(NCc3ccccc3O)nc(NCCCO)nc21")
0.1
>>> measured("O=c1cc(N2CCOCC2)oc2c1ccc1ccccc12")
0
>>> measured("O=C(O)/C=C/c1cc(CO)ccc1CO")
-0.2
>>> measured("Cn1cc(C2=C(c3cn(CCCSC(=N)N)c4ccccc34)C(=O)NC2=O)c2ccccc21")
0.9
>>> measured("O=C(Nc1cccc(Nc2nccc(Nc3cccc(C(F)(F)F)c3)n2)c1)C1CC1")
0.2
>>> measured("COc1ccc(CNc2nc(N(CCO)CCO)nc3c2ncn3C(C)C)cc1")
0.1
>>> measured("O=C1Nc2ccccc2/C1=C1/Nc2ccccc2/C1=N\\O")
6.4

====

Entries with their measured ΔTm, system Serine/threonine-protein kinase Chk2 (Homo sapiens):
property: ΔTm (°C)

>>> measured("O=c1c(O)c(-c2ccc(O)c(O)c2)oc2cc(O)cc(O)c12 [QUERCETIN]")
4.8
>>> measured("Cl.Cn1cc(C2=C(c3ccc4cc5n(c4c3)CCC(CN)C5)C(=O)NC2=O)c2ccccc21 (stereo unspecified)")
1
>>> measured("CSc1nc(-c2ccc(F)cc2)c(-c2ccnc(NC(C)c3ccccc3)c2)[nH]1 (racemic)")
0.7
>>> measured("NC1=NC(=O)/C(=C2\\CCNC(=O)c3[nH]c(Br)cc32)N1 [HYMENIALDISINE]")
8.2
>>> measured("CN(C)CC1CCn2c(c(C3=C(c4c[nH]c5ccccc45)C(=O)NC3=O)c3ccccc32)C1 (stereo unspecified)")
0.6
>>> measured("N#C/C(=C\\c1ccc(O)c(O)c1)C(=O)NCc1ccccc1")
0.4
>>> measured("O=c1cc(-c2ccc(O)cc2)oc2cc(O)cc(O)c12")
2.7
>>> measured("CCOc1ccc(/C=C2/SC(=O)N(CCN)C2=O)cc1 [HIAZOLIDINEDIONE1]")
0.7
>>> measured("O=[N+]([O-])c1ccc(-c2nc(-c3ccc(F)cc3)c(-c3ccncc3)[nH]2)cc1")
-0.4
>>> measured("CCOc1cc2ncnc(Nc3cccc(Br)c3)c2cc1OCC")
2.6
>>> measured("Nc1nc(Nc2ccc(S(N)(=O)=O)cc2)nn1C(=S)Nc1c(F)cccc1F")
8.6
>>> measured("OC[C@H]1O[C@@H](n2cnc3cc(Cl)c(Cl)cc32)[C@H](O)[C@@H]1O")
0.2
>>> measured("COc1cc2ncnc(Nc3cccc(Br)c3)c2cc1OC")
2
>>> measured("C[S+]([O-])c1ccc(CSc2nc(-c3ccc(F)cc3)c(-c3ccncc3)[nH]2)cc1 (stereo unspecified)")
-0.4
>>> measured("O=C(O)c1cc(NCc2cc(O)ccc2O)ccc1O")
0
>>> measured("Nc1n[nH]c2nc3ccccc3nc12 [QUINOXALINE1]")
0.5
>>> measured("CCN1/C(=C/C(C)=O)Sc2ccc(OC)cc21")
0.1
>>> measured("COc1ccc(S(=O)(=O)N(CCO)c2ccccc2CN(C)C/C=C/c2ccc(Cl)cc2)cc1")
-0.1
>>> measured("Cn1cnc2c(NCc3ccccc3)nc(NCCO)nc21 [OLOMOUCINE]")
-0.6
>>> measured("c1ccc(-c2n[nH]c3c2oc2ccccc23)cc1")
0.7
>>> measured("O=C1Nc2ccccc2/C1=C\\c1ccc[nH]1")
4.1

====

These compounds were tested on Serine/threonine-protein kinase PAK 6 (Homo sapiens); ΔTm is the recorded read-out.
property: ΔTm (°C)

>>> measured("O=C(O)c1cc(N(Cc2ccccc2O)Cc2cc(O)ccc2O)ccc1O")
-0.3
>>> measured("Nc1nccc(-c2c(-c3ccc(F)cc3)ncn2C2CCNCC2)n1")
-0.5
>>> measured("O=c1cc(-c2ccc(O)cc2)oc2cc(O)cc(O)c12")
0.3
>>> measured("Cc1nc(Nc2ncc(C(=O)Nc3c(C)cccc3Cl)s2)cc(N2CCN(CCO)CC2)n1")
2.1
>>> measured("Cn1cc(C2=C(c3cn(CCCN)c4ccccc34)C(=O)NC2=O)c2ccccc21")
4.5
>>> measured("CSc1nc(-c2ccc(F)cc2)c(-c2ccnc(NC(C)c3ccccc3)c2)[nH]1 (racemic)")
-0.3
>>> measured("O=C1c2ccccc2-[n+]2ccc3c([nH]c4ccccc43)c21 [FASCAPLYSIN CHLORIDE]")
-0.9
>>> measured("N=C(N)NCCNS(=O)(=O)c1cccc2cnccc12")
0
>>> measured("CC(C)n1cnc2c(NCc3ccccc3O)nc(NCCCO)nc21")
0.3
>>> measured("CC(C)c1nn(-c2c(Cl)cccc2Cl)c2nc(Cc3ccc(OCCO)cc3)[nH]c(=O)c12")
-0.1
>>> measured("CCOC(=O)c1cnc2oc3ccc(O)cc3c2c1-c1ccccc1")
0.3
>>> measured("O=C1NC(=O)C(c2cn(CCCn3ccnc3)c3ccccc23)=C1Nc1ccccc1")
-0.4
>>> measured("C=CNC#N")
0.5
>>> measured("C[S+]([O-])c1ccc(CSc2nc(-c3ccc(F)cc3)c(-c3ccncc3)[nH]2)cc1 (stereo not drawn)")
0
>>> measured("O=S(=O)(NCCNC/C=C/c1ccc(Br)cc1)c1cccc2cnccc12")
1.5
>>> measured("C/C(O)=C(\\C#N)C(=O)Nc1cc(Br)ccc1Br")
-0.2
>>> measured("O=C1Nc2ccccc2/C1=C\\c1ccc[nH]1")
1.6
>>> measured("O=c1c(-c2ccc(O)cc2)coc2cc(O)cc(O)c12")
-0.9
>>> measured("NCCNS(=O)(=O)c1cccc2c(Cl)cccc12")
0.2
>>> measured("COc1cccc(-c2cc(=O)c3ccccc3o2)c1N")
0.4
>>> measured("CC(C)(C)n1nc(-c2cccc3ccccc23)c2c(N)ncnc21")
0.3
>>> measured("Cn1cnc2c(NCc3ccccc3)nc(NCCO)nc21")
-0.5
>>> measured("O=C1C=C2C(=Nc3c2c2c(c4c3=NC3=C4CCC=C3)C=NC=2)CC1")
3.1

====

Target: Tyrosine-protein kinase Fyn (Homo sapiens, UniProt P06241)
Sequence (P06241 whole entry): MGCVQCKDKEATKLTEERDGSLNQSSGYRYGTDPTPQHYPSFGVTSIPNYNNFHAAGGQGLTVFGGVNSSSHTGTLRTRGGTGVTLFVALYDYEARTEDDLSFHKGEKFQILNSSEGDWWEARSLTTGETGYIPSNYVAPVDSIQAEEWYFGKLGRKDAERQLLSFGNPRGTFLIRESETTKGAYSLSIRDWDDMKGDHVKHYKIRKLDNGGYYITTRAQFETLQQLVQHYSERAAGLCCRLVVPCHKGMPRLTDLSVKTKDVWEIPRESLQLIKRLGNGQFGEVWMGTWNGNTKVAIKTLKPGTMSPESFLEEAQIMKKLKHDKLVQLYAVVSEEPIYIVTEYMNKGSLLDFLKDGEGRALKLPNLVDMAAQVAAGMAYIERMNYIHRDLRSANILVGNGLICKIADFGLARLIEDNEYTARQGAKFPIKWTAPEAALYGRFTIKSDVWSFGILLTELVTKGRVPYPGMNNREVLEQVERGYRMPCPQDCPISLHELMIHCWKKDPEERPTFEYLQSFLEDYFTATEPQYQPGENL
Test: Inhibition of Fyn
pIC50: −log10 of the molar value.
property: pIC50

>>> measured("CN(C)S(=O)(=O)c1ccc2c(c1)/C(=C/c1cc3c([nH]1)CCCC3)C(=O)N2")
6.77

====

Target: Casein kinase I isoform alpha (Homo sapiens)
Sequence (P48729 whole entry, canonical isoform): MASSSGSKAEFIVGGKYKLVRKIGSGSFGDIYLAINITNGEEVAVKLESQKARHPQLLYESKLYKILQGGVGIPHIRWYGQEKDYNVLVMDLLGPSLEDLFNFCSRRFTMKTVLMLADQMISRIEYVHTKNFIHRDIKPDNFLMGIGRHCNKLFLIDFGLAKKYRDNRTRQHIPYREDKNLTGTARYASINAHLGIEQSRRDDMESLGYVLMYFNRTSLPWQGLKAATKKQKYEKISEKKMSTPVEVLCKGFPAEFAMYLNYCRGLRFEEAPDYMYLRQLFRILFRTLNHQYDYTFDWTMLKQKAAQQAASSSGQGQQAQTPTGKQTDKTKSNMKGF
Test: Inhibition of CK1a1
pIC50: −log10 of the molar value.
property: pIC50

>>> measured("COc1cc(OC)c(/C=C2\\C(=O)Nc3ccccc32)c(OC)c1")
4.96

====

Test: Inhibition of diacylglycerol kinase in isolated platelet membrane
Assay type: cell membranes
pIC50: −log10 of the molar value.
property: pIC50

>>> measured("Cc1nc2sccn2c(=O)c1CCN1CCC(=C(c2ccccc2)c2ccc(F)cc2)CC1")
5.55

====

The following molecules have recorded ΔTm on Calcium/calmodulin-dependent protein kinase kinase 2 (Homo sapiens).
Sequence (Q96RR4 2-588 limits assumed): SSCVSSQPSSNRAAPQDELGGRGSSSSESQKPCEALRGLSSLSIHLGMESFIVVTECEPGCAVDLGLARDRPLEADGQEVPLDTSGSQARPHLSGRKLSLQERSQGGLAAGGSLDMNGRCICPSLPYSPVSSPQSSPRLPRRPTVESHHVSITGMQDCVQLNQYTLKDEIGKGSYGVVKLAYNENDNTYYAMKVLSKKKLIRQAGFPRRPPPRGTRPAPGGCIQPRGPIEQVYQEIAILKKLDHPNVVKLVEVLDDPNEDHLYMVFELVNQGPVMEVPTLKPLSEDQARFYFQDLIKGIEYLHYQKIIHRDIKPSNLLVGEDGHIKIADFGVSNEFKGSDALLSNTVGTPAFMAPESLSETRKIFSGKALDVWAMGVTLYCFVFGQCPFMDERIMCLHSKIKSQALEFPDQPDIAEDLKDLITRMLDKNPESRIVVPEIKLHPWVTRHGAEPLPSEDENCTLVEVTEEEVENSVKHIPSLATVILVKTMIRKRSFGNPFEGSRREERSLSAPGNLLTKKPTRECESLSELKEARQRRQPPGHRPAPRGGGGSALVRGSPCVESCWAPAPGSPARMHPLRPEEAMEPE
property: ΔTm (°C)

>>> measured("O=C(O)c1cc(NCc2cc(O)ccc2O)ccc1O")
0.8
>>> measured("COc1ccc(CNc2nc(N(CCO)CCO)nc3c2ncn3C(C)C)cc1")
1.2
>>> measured("Nc1nccc(-c2c(-c3ccc(F)cc3)ncn2C2CCNCC2)n1")
0.1
>>> measured("Cc1cc(C=C2C(=O)C=CC2=O)cc(C)c1O")
-1.4
>>> measured("O=C1NC(=O)c2c1c1c3ccccc3[nH]c1n1cncc21 [ISOGRANULATIMIDE]")
0.5
>>> measured("O=c1ccc2ccc(O)c(O)c2o1")
0.5

====

Test system Mitogen-activated protein kinase 6 (Homo sapiens) (UniProt Q16659), ΔTm listed for each of the molecules.
property: ΔTm (°C)

>>> measured("Nc1ncnc2c1c(I)cn2[C@@H]1O[C@H](CO)[C@@H](O)[C@H]1O")
-0.1
>>> measured("O=S(=O)(NCCNC/C=C/c1ccc(Br)cc1)c1cccc2cnccc12")
0.4
>>> measured("CC(C)n1cnc2c(NCc3ccccc3O)nc(NCCCO)nc21")
0
>>> measured("COc1cc(/C=C/C(=O)CC(=O)/C=C/c2ccc(O)c(OC)c2)ccc1O")
1.8
>>> measured("Cc1ccc(NC2=CC(=O)c3sc(C)nc3C2=O)cc1")
-0.3
>>> measured("O=c1cc(-c2ccc(O)cc2)oc2cc(O)cc(O)c12")
0.5
>>> measured("COc1cccc(-c2cc(=O)c3ccccc3o2)c1N")
0.3
>>> measured("C[C@@H]1C[C@H]2O[C@@H]2/C=C\\C=C\\C(=O)Cc2c(Cl)c(O)cc(O)c2C(=O)O1")
0.4
>>> measured("CC(C)c1nn(-c2c(Cl)cccc2Cl)c2nc(Cc3ccc(OCCO)cc3)[nH]c(=O)c12")
0
>>> measured("O=C1C=C2C(=Nc3c2c2c(c4c3=NC3=C4CCC=C3)C=NC=2)CC1")
1.4
